Hello, the source for this data is patent US20230091336A1, in case you need it.

System: SOCE in U937 human monocytes
assay_procedure: SOCE Fura-2 bioassay in U937 cells
setup_conditions: Homo sapiens, U-937, read-out: IC50 SOCE, purified cannabinoids, U937; Table 5
Returns: string. Value is criterion met if measured IC50 is below 20 µM, and criterion not met if it is greater than or equal to it.

> print(dat)
                                   compound        label.class
1  CCCCCc1cc2c(c(O)c1C(=O)O)-c1cc(C)ccc1C(C)(C)O2 [CBNA]      criterion met
2  CCCc1cc(O)c(C/C=C(\C)CCC=C(C)C)c(O)c1 [CBGV]      criterion met
3  CCCCCc1cc2c(c(O)c1C(=O)O)[C@@H]1[C@H]3C(CC[C@@]3(C)O2)C1(C)C (stereo partly drawn) [CBLA]  criterion not met
4  CCCCCc1cc2c(c(O)c1C(=O)O)C=C[C@@](C)(CCC=C(C)C)O2 [CBCA]  criterion not met
5  CCCCCc1cc2c(c(O)c1C(=O)O)[C@@H]1C=C(C)CC[C@H]1C(C)(C)O2 [THCA]      criterion met
6  C=C(C)[C@@H]1CCC(C)=C[C@H]1c1c(O)cc(CCC)c(C(=O)O)c1O [CBDVA]      criterion met
7  C=C(C)c1ccc(C)cc1-c1c(O)cc(CCCCC)cc1O [CBND]  criterion not met
8  CCCCCc1cc(O)c(C/C=C(\C)CCC=C(C)C)c(O)c1C(=O)O [CBGA]      criterion met
9  CCCCCc1cc(OC)c2c(c1)OC(C)(C)c1ccc(C)cc1-2 [CBNM]  criterion not met

----------
Test system: SOCE in U937 human monocytes
assay_procedure: SOCE Fura-2 bioassay in U937 cells
setup_conditions: read-out: IC50 SOCE, purified cannabinoids; U937; Table 5
pIC50: −log10 of the molar value.
value_kind: pIC50

> print(dat)
                                   molecule  value.kind  obs.value
1  CCCCCc1cc(O)c2c(c1)OC(C)(CCC=C(C)C)C=C2 (stereo not shown)       pIC50       4.39

----------
Test system: SOCE in HEK-293 human embryonic kidney cells
assay_procedure: SOCE Fura-2 bioassay in HEK293 cells
Assay type: cell-based
setup_conditions: Homo sapiens, HEK293, read-out: IC50 SOCE, purified cannabinoids, HEK-293; Table 5
value_kind: log10(IC50) (log10 of the value in µM)

> print(dat)
                                   molecule  obs.value
1  C=C(C)[C@@H]1CCC(C)=C[C@H]1c1c(O)cc(CCCCC)c(C(=O)O)c1O       1.43
2  CCCCCc1cc2c(c(O)c1C(=O)O)-c1cc(C)ccc1C(C)(C)O2       1.47
3  CCCCCc1cc2c(c(O)c1C(=O)O)[C@@H]1[C@H]3C(CC[C@@]3(C)O2)C1(C)C (stereo partly shown)       1.49
4  CCCCCc1cc2c(c(O)c1C(=O)O)[C@@H]1C=C(C)CC[C@H]1C(C)(C)O2       1.32
5     C=C(C)c1ccc(C)cc1-c1c(O)cc(CCCCC)cc1O       1.33
6  CCCCCc1cc(O)c(C/C=C(\C)CCC=C(C)C)c(O)c1C(=O)O       0.56
7  CCCc1cc(O)c(C/C=C(\C)CCC=C(C)C)c(O)c1C(=O)O       0.32
